Can you tell me NaV1.5 pIC50 (Q2) for the items I'm about to list?
target: NaV1.5 (Homo sapiens, UniProt Q14524); test: Second IonWorks Quattro NaV1.5 screen (GSK, Q2); details: second independent Quattro screening; −log10 of IC50 in Molar; 0.0 = pIC50 ≤ 0 fitted
Sequence (Q14524 whole entry): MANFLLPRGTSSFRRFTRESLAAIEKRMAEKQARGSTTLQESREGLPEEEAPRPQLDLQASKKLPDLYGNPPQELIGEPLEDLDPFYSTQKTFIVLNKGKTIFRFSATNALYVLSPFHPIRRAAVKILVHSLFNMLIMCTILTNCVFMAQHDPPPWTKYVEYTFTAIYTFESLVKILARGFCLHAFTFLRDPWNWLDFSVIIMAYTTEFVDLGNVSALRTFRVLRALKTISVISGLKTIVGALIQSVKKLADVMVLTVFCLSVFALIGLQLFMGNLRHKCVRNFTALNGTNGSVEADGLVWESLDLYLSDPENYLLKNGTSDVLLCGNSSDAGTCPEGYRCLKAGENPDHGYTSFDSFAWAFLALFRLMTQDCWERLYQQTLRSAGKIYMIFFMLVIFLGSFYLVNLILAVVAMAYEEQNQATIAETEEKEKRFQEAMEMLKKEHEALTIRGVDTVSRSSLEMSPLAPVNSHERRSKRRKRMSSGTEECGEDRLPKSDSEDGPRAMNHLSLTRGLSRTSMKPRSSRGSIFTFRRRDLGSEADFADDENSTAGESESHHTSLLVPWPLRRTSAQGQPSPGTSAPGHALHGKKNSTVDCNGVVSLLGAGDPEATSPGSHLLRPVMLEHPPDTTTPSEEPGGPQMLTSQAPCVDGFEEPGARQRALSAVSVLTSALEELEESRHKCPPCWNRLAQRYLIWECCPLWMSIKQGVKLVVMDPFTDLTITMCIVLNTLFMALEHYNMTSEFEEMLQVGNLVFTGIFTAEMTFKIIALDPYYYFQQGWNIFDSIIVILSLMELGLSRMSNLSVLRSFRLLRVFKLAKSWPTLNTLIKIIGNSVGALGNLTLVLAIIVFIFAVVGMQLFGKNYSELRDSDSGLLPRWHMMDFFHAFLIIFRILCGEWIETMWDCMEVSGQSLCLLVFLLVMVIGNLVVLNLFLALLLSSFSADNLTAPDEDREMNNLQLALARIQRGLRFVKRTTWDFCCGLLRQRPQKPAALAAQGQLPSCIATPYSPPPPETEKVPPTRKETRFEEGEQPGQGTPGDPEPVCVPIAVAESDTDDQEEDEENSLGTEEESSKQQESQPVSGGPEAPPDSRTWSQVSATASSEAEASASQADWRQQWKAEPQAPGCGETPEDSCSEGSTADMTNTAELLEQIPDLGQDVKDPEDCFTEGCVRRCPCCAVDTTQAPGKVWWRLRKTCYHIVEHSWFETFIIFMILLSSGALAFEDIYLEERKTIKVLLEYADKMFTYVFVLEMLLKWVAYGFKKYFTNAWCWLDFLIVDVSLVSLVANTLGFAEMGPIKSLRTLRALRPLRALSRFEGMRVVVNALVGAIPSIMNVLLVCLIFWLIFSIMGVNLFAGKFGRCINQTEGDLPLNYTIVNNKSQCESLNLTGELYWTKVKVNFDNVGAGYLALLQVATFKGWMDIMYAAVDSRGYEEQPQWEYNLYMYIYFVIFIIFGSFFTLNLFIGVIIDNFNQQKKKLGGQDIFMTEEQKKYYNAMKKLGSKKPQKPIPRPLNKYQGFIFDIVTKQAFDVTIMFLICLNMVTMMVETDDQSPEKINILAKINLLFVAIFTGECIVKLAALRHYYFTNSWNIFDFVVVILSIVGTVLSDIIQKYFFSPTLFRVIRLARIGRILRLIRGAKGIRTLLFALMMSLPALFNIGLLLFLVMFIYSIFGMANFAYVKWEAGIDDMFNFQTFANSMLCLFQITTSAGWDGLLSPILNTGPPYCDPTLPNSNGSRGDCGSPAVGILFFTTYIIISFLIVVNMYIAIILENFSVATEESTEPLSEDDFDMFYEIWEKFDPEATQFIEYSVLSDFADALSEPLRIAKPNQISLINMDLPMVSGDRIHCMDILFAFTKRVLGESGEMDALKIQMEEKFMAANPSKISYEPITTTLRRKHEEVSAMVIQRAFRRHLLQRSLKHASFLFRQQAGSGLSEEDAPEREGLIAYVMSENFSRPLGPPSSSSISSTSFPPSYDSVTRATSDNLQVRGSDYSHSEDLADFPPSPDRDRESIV

Query block: May I ask what NaV1.5 pIC50 (Q2) has been recorded for COC(c1ccccc1)(c1ccccc1)[C@H](Oc1nc(C)cc(C)n1)C(=O)O [Ambrisentan] ?
Result block: 3.0

Query block: Entry Nc1nnc(-c2cccc(Cl)c2Cl)c(N)n1 [Lamotrigine] please
Result block: 4.4

Query block: Entry CN1CC(=O)N2[C@H](c3ccc4c(c3)OCO4)c3[nH]c4ccccc4c3C[C@@H]2C1=O [Tadalafil] please
Result block: 3.8

Query block: Entry O=C(O)c1ccc(-n2nc(-c3ccccc3O)nc2-c2ccccc2O)cc1 [Deferasirox] please
Result block: 3.3

Query block: Entry Cc1nc2n(c(=O)c1CCN1CCC(c3noc4cc(F)ccc34)CC1)CCCC2O (centres unmarked) [Paliperidone] please
Result block: 3.8

---

assay: Plasma concentration (Cmax) during the TQT study, total and calculated free; format: in vivo, human; settings: Cmax high; calculated with PPB and molecular weight
quantityKind: Cmax FREE (nM)
Numeric answer only, unit nM assumed.

Query block: May I ask what Cmax FREE has been recorded for CCCc1nc(C)c2c(=O)nc(-c3cc(S(=O)(=O)N4CCN(CC)CC4)ccc3OCC)[nH]n12 [Vardenafil] ?
Result block: 9.152

Query block: Entry Nc1nnc(-c2cccc(Cl)c2Cl)c(N)n1 [Lamotrigine] please
Result block: 37525.9

Query block: Entry CS(=O)(=O)CCNCc1ccc(-c2ccc3ncnc(Nc4ccc(OCc5cccc(F)c5)c(Cl)c4)c3c2)o1 [Lapatinib] please
Result block: 55.123

Query block: Entry C[C@@H](O)[C@H]1C(=O)N2C(C(=O)O)=C(S[C@@H]3CN[C@H](CNS(N)(=O)=O)C3)[C@H](C)[C@H]12 [Doripenem] please
Result block: 98346.2

Query block: Entry CC1=NN(c2ccc(C)c(C)c2)C(=O)/C1=N\Nc1cccc(-c2cccc(C(=O)O)c2)c1O [Eltrombopag] please
Result block: 171.764

Query block: Entry Cc1cn([C@@H]2C[C@@H](O)[C@H](CO)O2)c(=O)[nH]c1=O [Telbivudine] please
Result block: 26347.7

Query block: Entry O=C1c2cccc3c2[C@H](CCC3)CN1[C@@H]1CN2CCC1CC2 [Palonosetron] please
Result block: 6.393

Query block: Entry OC(CNCC(O)C1CCc2cc(F)ccc2O1)C1CCc2cc(F)ccc2O1 (stereo not shown) [Nebivolol] please
Result block: 0.940

Query block: Entry Cc1ccc(O)c([C@H](CCN(C(C)C)C(C)C)c2ccccc2)c1 [Tolterodine] please
Result block: 1.343

Query block: Entry COC[C@@H](NC(C)=O)C(=O)NCc1ccccc1 [Lacosamide] please
Result block: 79618.4

Query block: Entry Cc1nc2n(c(=O)c1CCN1CCC(c3noc4cc(F)ccc34)CC1)CCCC2O (stereo not shown) [Paliperidone] please
Result block: 71.5374

Query block: Entry CNCC[C@H](Oc1cccc2ccccc12)c1cccs1 [Duloxetine] please
Result block: 100.869

Query block: Entry CN(C)CC(c1ccc(O)cc1)C1(O)CCCCC1 (stereo not shown) [Desvenlafaxine] please
Result block: 3901.84
